Recorded values, source patent US8324246B2.

experimental_system: D2 (Homo sapiens)
Sequence (P14416 whole entry): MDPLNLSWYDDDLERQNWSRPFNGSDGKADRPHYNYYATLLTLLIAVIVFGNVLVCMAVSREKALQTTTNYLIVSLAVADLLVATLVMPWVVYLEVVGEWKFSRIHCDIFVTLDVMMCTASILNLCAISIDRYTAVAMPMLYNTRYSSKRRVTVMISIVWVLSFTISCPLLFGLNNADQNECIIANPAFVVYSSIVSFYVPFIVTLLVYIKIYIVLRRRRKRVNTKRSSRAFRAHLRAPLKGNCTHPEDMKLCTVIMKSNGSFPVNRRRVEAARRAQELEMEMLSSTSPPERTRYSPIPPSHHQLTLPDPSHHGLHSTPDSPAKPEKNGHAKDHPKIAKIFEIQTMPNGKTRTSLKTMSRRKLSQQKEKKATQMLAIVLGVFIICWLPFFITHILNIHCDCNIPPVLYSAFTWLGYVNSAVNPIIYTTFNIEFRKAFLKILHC
assay_details: Receptor selectivity binding, D2
run_parameters: Table 3
Description: For their high binding affinities for 5-HT2c, compounds in Examples 14 to 18, 20, and 22 or in Comparative Example 1 were used for the experiment with reaction mixtures. Except that CNS receptors such as 5-HT1a, 5-HT2a, 5-HT7, D2, D3 or D4 other than 5-HT2c were used as a receptor, IC50 values (nM) were measured in the same manner as in Experimental Example 1.
pIC50: −log10 of the molar value.
Exercise: state measured pIC50 for each of the compounds provided.

compound: Cc1ccc2[nH]cc(C(=O)Nc3ccc(Oc4cccnc4C)nc3)c2c1
pIC50: < 5.00
--
compound: O=C(Nc1ccc(OCc2ccccn2)nc1)c1c[nH]c2ccccc12
pIC50: < 5.00

Look up pIC50 of Cc1cc2c(cc1C(F)(F)F)N(C(=O)Nc1ccc(Oc3cccnc3C)nc1)CC2 [Comparative Example 1, SB-243213, reference compound] and report it. < 6.00

* * *

experimental_system: human gene recombinant 5-HT2c receptor expressed in CHO-K1 cell (Homo sapiens, UniProt P28335)
Construct: purchased Euroscreen, Belgium; host or cells: CHO-K1
Sequence (P28335 33-458): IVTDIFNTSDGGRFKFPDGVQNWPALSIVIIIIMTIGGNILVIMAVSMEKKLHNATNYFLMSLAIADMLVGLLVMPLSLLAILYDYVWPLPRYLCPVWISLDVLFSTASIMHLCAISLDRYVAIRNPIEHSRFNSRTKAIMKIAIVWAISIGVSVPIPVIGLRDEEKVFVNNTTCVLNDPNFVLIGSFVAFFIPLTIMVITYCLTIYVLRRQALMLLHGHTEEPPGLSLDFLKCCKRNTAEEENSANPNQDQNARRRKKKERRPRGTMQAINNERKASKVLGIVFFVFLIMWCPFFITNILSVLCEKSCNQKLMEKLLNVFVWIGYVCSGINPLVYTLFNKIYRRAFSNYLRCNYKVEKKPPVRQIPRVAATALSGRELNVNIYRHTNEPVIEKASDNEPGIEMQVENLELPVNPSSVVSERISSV
assay_details: Binding affinity to the serotonin 5-HT2c receptor ([3H]mesulergine)
run_parameters: Table 3; read-out: IC50 5-HT2c
Text: As a receptor, a human gene recombinant 5-HT2c receptor expressed in CHO—K1 cell was purchased from Euroscreen, Belgium and used in the experiment, and as a radioactive isotope, [3H]mesulergine (Amersham Biosciences, UK). […]
Quick rule for you: IC50 under 2 nM gets true (1), anything else gets false (0).

Below are worked cases with known answers.
compound: COc1ccc2[nH]cc(C(=O)Nc3ccc(Oc4cccnc4C)nc3)c2c1 [Example 15]
assigned_class: false (0)

compound: Cc1ccc2[nH]cc(C(=O)Nc3ccc(Oc4cccnc4C)nc3)c2c1 [Example 14]
assigned_class: false (0)

compound: Cc1ncccc1Oc1ccc(NC(=O)c2c[nH]c3c(C)cccc23)cn1 [Example 17]
assigned_class: false (0)

compound: O=C(Nc1ccc(OCc2ccccn2)nc1)c1c[nH]c2ccccc12 [Example 20]
assigned_class: false (0)

compound: Cc1ncccc1Oc1ccc(NC(=O)c2c[nH]c3ccc(I)cc23)cn1 [Example 18]
assigned_class: true (1)

compound: Cc1cc2c(cc1C(F)(F)F)N(C(=O)Nc1ccc(Oc3cccnc3C)nc1)CC2 [Comparative Example 1, SB-243213, reference compound]
assigned_class: true (1)

compound: Cc1ccc2c(C(=O)Nc3ccc(Oc4cccnc4C)nc3)c[nH]c2c1 [Example 16]
assigned_class: true (1)

Proceed to the following item.
is_below(IC50, 2 nM) for O=C(Nc1ccc(Oc2cccnc2Cl)nc1)c1c[nH]c2ccccc12 [Example 22] ? true (1)

* * *

Exercise: state measured IC50 for each of the compounds provided.
Sequence of the target: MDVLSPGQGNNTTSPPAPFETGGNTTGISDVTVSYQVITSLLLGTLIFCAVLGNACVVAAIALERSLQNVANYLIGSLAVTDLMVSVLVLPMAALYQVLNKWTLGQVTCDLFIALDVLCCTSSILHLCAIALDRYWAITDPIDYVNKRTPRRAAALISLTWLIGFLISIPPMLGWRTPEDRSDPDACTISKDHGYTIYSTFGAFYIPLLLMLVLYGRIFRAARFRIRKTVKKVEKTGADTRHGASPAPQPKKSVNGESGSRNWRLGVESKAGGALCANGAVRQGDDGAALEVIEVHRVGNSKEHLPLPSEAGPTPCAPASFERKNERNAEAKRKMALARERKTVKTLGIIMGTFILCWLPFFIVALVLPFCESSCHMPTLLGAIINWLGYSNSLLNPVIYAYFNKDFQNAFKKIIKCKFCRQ

Each of the following entries comes with a recorded value; kindly state IC50 for each.
1. O=C(Nc1ccc(Oc2cccnc2Cl)nc1)c1c[nH]c2ccccc12 [Example 22]
2. O=C(Nc1ccc(OCc2ccccn2)nc1)c1c[nH]c2ccccc12 [Example 20]
3. COc1ccc2[nH]cc(C(=O)Nc3ccc(Oc4cccnc4C)nc3)c2c1 [Example 15]
4. Cc1ccc2[nH]cc(C(=O)Nc3ccc(Oc4cccnc4C)nc3)c2c1 [Example 14]

1: > 10 µM; 2: > 10 µM; 3: > 10 µM; 4: > 10 µM

Each of the following entries comes with a recorded value; kindly state IC50 for each.
1. Cc1ccc2c(C(=O)Nc3ccc(Oc4cccnc4C)nc3)c[nH]c2c1 [Example 16]
2. Cc1ncccc1Oc1ccc(NC(=O)c2c[nH]c3ccc(I)cc23)cn1 [Example 18]

> 10 µM
0.78 µM

Each of the following entries comes with a recorded value; kindly state IC50 for each.
1. Cc1ncccc1Oc1ccc(NC(=O)c2c[nH]c3c(C)cccc23)cn1 [Example 17]
2. Cc1cc2c(cc1C(F)(F)F)N(C(=O)Nc1ccc(Oc3cccnc3C)nc1)CC2 [Comparative Example 1, SB-243213, reference compound]

> 10 µM
> 1 µM

* * *

A short record of IC50 observed with 5-HT7 (Homo sapiens, UniProt P34969) follows.
Sequence (P34969 whole entry, species assumed): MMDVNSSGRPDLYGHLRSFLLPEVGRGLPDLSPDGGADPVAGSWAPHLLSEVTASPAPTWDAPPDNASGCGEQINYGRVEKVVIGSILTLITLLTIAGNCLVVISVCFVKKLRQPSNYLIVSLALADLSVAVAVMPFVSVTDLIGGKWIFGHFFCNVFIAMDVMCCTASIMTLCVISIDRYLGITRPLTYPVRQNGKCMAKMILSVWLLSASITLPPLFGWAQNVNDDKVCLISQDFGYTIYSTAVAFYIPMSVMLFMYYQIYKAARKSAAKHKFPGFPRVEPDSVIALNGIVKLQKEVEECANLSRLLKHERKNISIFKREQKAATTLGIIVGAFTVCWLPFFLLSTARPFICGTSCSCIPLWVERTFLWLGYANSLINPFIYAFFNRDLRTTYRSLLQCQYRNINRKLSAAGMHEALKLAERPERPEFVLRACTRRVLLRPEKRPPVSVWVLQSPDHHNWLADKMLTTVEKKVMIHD

compound: COc1ccc2[nH]cc(C(=O)Nc3ccc(Oc4cccnc4C)nc3)c2c1
experimental_system: 5-HT7 (Homo sapiens, UniProt P34969)
readout: IC50
result: > 10 µM
--
compound: O=C(Nc1ccc(Oc2cccnc2Cl)nc1)c1c[nH]c2ccccc12
experimental_system: 5-HT7 (Homo sapiens, UniProt P34969)
readout: IC50
result: > 10 µM
--
compound: O=C(Nc1ccc(OCc2ccccn2)nc1)c1c[nH]c2ccccc12
experimental_system: 5-HT7 (Homo sapiens, UniProt P34969)
readout: IC50
result: > 10 µM
--
compound: Cc1cc2c(cc1C(F)(F)F)N(C(=O)Nc1ccc(Oc3cccnc3C)nc1)CC2 [Comparative Example 1, SB-243213, reference compound]
experimental_system: 5-HT7 (Homo sapiens, UniProt P34969)
readout: IC50
result: > 1 µM
--
compound: Cc1ncccc1Oc1ccc(NC(=O)c2c[nH]c3ccc(I)cc23)cn1
experimental_system: 5-HT7 (Homo sapiens, UniProt P34969)
readout: IC50
result: > 1 µM

Each of the following entries comes with a recorded value; kindly state IC50 for each.
1. Cc1ccc2[nH]cc(C(=O)Nc3ccc(Oc4cccnc4C)nc3)c2c1
2. Cc1ccc2c(C(=O)Nc3ccc(Oc4cccnc4C)nc3)c[nH]c2c1
3. Cc1ncccc1Oc1ccc(NC(=O)c2c[nH]c3c(C)cccc23)cn1

1. > 10 µM
2. > 10 µM
3. > 10 µM

* * *

experimental_system: 5-HT2a (Homo sapiens, UniProt P28223)
Sequence (P28223 whole entry, species assumed): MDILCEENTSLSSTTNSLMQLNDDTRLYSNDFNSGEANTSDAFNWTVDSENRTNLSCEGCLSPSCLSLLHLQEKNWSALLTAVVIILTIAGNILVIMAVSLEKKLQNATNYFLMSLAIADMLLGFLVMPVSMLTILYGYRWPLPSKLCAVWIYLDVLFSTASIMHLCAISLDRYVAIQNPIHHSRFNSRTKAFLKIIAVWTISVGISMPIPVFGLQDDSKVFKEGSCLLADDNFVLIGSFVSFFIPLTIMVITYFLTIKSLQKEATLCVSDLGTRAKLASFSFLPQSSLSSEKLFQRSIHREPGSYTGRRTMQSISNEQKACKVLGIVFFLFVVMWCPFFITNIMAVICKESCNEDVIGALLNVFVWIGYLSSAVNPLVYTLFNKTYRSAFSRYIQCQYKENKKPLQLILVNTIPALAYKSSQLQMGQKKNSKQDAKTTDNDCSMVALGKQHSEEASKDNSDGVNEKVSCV
pIC50: −log10 of the molar value.
readout: pIC50

// solved cases for pIC50 follow
compound: Cc1ccc2[nH]cc(C(=O)Nc3ccc(Oc4cccnc4C)nc3)c2c1 [Example 14]
pIC50: < 6.00

compound: COc1ccc2[nH]cc(C(=O)Nc3ccc(Oc4cccnc4C)nc3)c2c1 [Example 15]
pIC50: < 5.00

compound: O=C(Nc1ccc(Oc2cccnc2Cl)nc1)c1c[nH]c2ccccc12 [Example 22]
pIC50: < 6.00

compound: Cc1cc2c(cc1C(F)(F)F)N(C(=O)Nc1ccc(Oc3cccnc3C)nc1)CC2 [Comparative Example 1, SB-243213, reference compound]
pIC50: 7.49

compound: O=C(Nc1ccc(OCc2ccccn2)nc1)c1c[nH]c2ccccc12 [Example 20]
pIC50: < 5.00

compound: Cc1ccc2c(C(=O)Nc3ccc(Oc4cccnc4C)nc3)c[nH]c2c1 [Example 16]
pIC50: < 5.00

Look up pIC50 of Cc1ncccc1Oc1ccc(NC(=O)c2c[nH]c3c(C)cccc23)cn1 [Example 17] and report it. < 5.00
